Measured values drawn from PubChem BioAssay (NCATS) for this set.

Assay: Quantitative highthroughput screen to assess conditional lethalithy of P12 Ichikawa cells grown in Human Plasma-Like Medium with dialyzed fetal bovine serum (HPLM+ds) (AID 1963879); note: nearly all actives have a fitted effect of over 35% in size; note: potency is the fitted concentration of half-maximal effect
Details: ATP luminescence, 48 h; viability; series mostly up to 45.8 µM
Records with an inconclusive call do not appear. The source made the active and inactive calls. Calls come from the whole dose curve; as a rule, active = well fitted cell-killing curve with a large enough effect; inconclusive = small, poorly fitted or top-dose-only effect; inactive = flat fitted curve, though single readings scatter.
ENDPOINT_NAME: Potency

>>> df
                                   compound  recorded_measurement
0  N=c1ccn2c(n1)O[C@H]1[C@@H](O)[C@@H](CO)O[C@H]12       132 nM (active)
1  CC(C)[C@H](C(=O)Nc1ccc(C(=O)NO)cc1)c1ccccc1      2350 nM (active)
2  Nc1ccccc1NC(=O)c1ccc(CNc2nccc(-c3cccnc3)n2)cc1      2090 nM (active)
3  CN1CCN(c2c(F)cc3c(=O)c(C(=O)O)cn4c3c2OCN4C)CC1              inactive
4  CC=C1NC(=O)[C@H]2CSSCCC=C[C@H](CC(=O)N[C@H](C(C)C)C(=O)N2)OC(=O)[C@H](C(C)C)NC1=O      37.2 nM (active)
5  CC(O)(C#Cc1ccc2c(c1)N(c1nc(N)ncc1Cl)CC2)c1nccs1 (configuration not stated)              inactive
6     O=c1cc(N2CCOCC2)oc2c(-c3ccccc3)cccc12              inactive

---

Assay: Cellular viability qHTS for adrenocortical cancer (ACC) cell line NCI-H295R (AID 1963990); note: nearly all actives have a fitted effect of over 60% in size
Conditions: CellTiter-Glo ATP luminescence, 48 h; series mostly up to 46.1 µM
Records with an inconclusive call do not appear. Activity calls are given as the source filed them. The call rests on the fitted dose curve; in most records, active means well fitted cell-killing curve with a large enough effect; inconclusive means small, poorly fitted or top-dose-only effect; inactive means flat fitted curve, though single readings scatter.
Labels: active, inactive

In [3]: df
Out[3]:
                                test_smiles  class_label
0  NC(=O)c1ncn([C@@H]2O[C@H](CO)[C@@H](O)[C@H]2O)c1N     inactive
1              Nc1nc2c(ncn2COCCO)c(=O)[nH]1     inactive
2  CCCCCN(CCC12CC3CC(CC(C3)C1)C2)C(=O)NCCCc1ccncc1     inactive
3  Cc1cc(-c2ccc(CC(=O)Nc3ccc(-c4cccnc4)cc3)cc2)ccn1     inactive
4  Nc1ccc(C(=O)c2cc3c(ccc4ccccc43)[nH]2)cc1       active
5  CCCCC(=O)OCC(=O)[C@]1(O)Cc2c(O)c3c(c(O)c2[C@@H](O[C@H]2C[C@H](NC(=O)C(F)(F)F)[C@H](O)[C@H](C)O2)C1)C(=O)c1c(OC)cccc1C3=O       active
6  CN(C)c1ccc(C(=C2C=CC(=[N+](C)C)C=C2)c2ccccc2)cc1       active
7                              NNCCc1ccccc1     inactive

---

Experiment: Quantitative highthroughput screen to assess conditional lethalithy of NOMO1 cells grown in RPMI1640 with dialyzed fetal bovine serum (RPMI+ds) (AID 1963877); note: nearly all actives have a fitted effect of over 30% in size;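 for viability: 100% = DMSO control wells and 0% = empty wells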
Conditions: NOMO1 in RPMI+dialyzed FBS viability, ATP luminescence, 48 h; series mostly up to 45.8 µM
Inconclusive results are not listed. The source made the active and inactive calls. Calls come from the whole dose curve; as a rule, active = well fitted cell-killing curve with a large enough effect; inconclusive = small, poorly fitted or top-dose-only effect; inactive = flat fitted curve, though single readings scatter.
Labels: T (active), F (inactive)

>>> df
                                   compound  class_label
0               COc1ccc(Nc2nccc(NCCO)n2)cc1            F
1  COc1cccc2c1C(=O)c1c(O)c3c(c(O)c1C2=O)C[C@@](O)(C(=O)CO)C[C@@H]3O[C@H]1C[C@H](N)[C@@H](O)[C@H](C)O1            T
2  COCCCN1CCC(NC(=O)c2cc(Cl)c(N)c3c2OCC3)CC1            F
3  CON=C(C(=O)N[C@@H]1C(=O)N2C(C(=O)O)=C(Cn3ccc(=N)n3CCO)CS[C@H]12)c1csc(N)n1            F
4   CCC1(C)CC(=O)NC1=O (stereo unspecified)            F
5       Cc1[nH]c(=O)c(C#N)cc1-c1ccc2nccn2c1            F

---

Assay: Viability qHTS for spleen associated tyrosine kinase inhibitor (SYKi) drug resistant MV4-11 cells (AID 1963824); note: nearly all actives have a fitted effect of over 35% in size
Conditions: SYKi-resistant MV4-11 viability, CellTiter-Glo, 72 h; series mostly up to 45 µM
Results filed as inconclusive are left out. Active and inactive are the calls of the source. Calls come from the whole dose curve; as a rule, active = well fitted cell-killing curve with a large enough effect; inconclusive = small, poorly fitted or top-dose-only effect, or effect the other way; inactive = no such curve, though single readings can be large or run the other way.
Labels: active, inactive

                                    molecule  class_label
 0  CC(=O)N(c1onc(C)c1C)S(=O)(=O)c1ccc(N)cc1     inactive
 1  CC(=O)OC1C(C)C2C(OC3OC(CO)C(O)C(O)C3O)OC=C(C(=O)O)C2C1OC(=O)c1ccccc1 (configuration not stated)     inactive
 2  COc1cc(O)c2c(c1)C1(OC2=O)C(C)=CC(=O)C1O (configuration not stated)       active
 3  CCC/C=C1\OC(=O)C2=C1CCC(O)C2O (configuration not stated)     inactive
 4              CC[C@@H](CO)NCCN[C@@H](CC)CO     inactive
 5  C=CS(=O)(=O)NC1CCN(C(=O)CNc2cc(I)c(Cl)cc2OC)CC1       active
 6  Cn1cc(CNCC2CCN(c3ncc(C(=O)NO)cn3)CC2)c2ccccc21       active
 7  Cc1c(C(N)=O)cc([N+](=O)[O-])cc1[N+](=O)[O-]     inactive
 8  CC(C)=CCC/C(C)=C/CC/C(C)=C/CCC(=O)OC/C=C(\C)CCC=C(C)C     inactive
 9  Nc1nc2[nH]cc(CCc3ccc(C(=O)N[C@@H](CCC(=O)O)C(=O)O)cc3)c2c(=O)[nH]1       active
10                             COc1ccc(O)cc1     inactive
11  CNC(=O)[C@@H](NC(=O)[C@H](CC(C)C)[C@H](O)C(=O)NO)C(C)(C)C       active
12  CC(=O)NC(C(=O)O[C@H]1CCC(C)(C)[C@@H]2CC=C3C(=O)OCC3(O)[C@@]12C)C(C)C (some centres not stated)       active
13  CCC[C@H](Nc1nc(-c2ccc(NC(=O)NCC)c(OC)c2)ncc1C)c1cccnc1       active
14           CC(C)Cn1cnc2c1c(=O)n(C)c(=O)n2C     inactive
15  C=C1C(OC2OC(CO)C(O)C(O)C2O)CC2C(C)(C)C(O)CCC2(C)C1CC/C(C)=C\COC(=O)CC(=O)O (configuration not stated)       active
16  CC(C)C[C@H](NC(=O)c1cc2ccccc2s1)C(=O)N1CCN(C(=O)[C@H](CO)NS(=O)(=O)c2ccc(Cl)cc2Cl)CC1       active

---

This section presents molecules with their documented activity (max response) values.
Assay: Cellular viability qHTS for adrenocortical cancer (ACC) cell line SW-13 (AID 1963989);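 note: cells grown in serum-free medium with ITS supplement; % is set by controls: 0 for no effect and ±100 for the full control effect; nearly all actives have a fitted effect of over 65% in size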
Details: SW-13 ACC cells viability, CellTiter-Glo, 48 h; hits give low values
Inconclusive results are not listed.
ENDPOINT_NAME: activity (max response) (%)

>>> print(df.to_string())
                                test_smiles  recorded_measurement
0                       Brc1ccccc1-c1ccccc1                  7.98
1  NCC(=O)Nc1cncc(-c2nn3c(=O)cc(N4CCNCC4)nc3s2)c1                 -17.3
2     Nc1ccc(S(=O)(=O)Nc2ccnn2-c2ccccc2)cc1                  3.92

---

Assay: Viability qHTS for spleen associated tyrosine kinase inhibitor (SYKi) naive MV4-11 cells (AID 1963823); note: nearly all actives have a fitted effect of over 40% in size
Conditions: MV4-11 AML viability, CellTiter-Glo luminescence, 72 h; series mostly up to 45 µM
Records with an inconclusive call do not appear. The source made the active and inactive calls. Calls follow the shape of the dose curve; as a rule, active = well fitted cell-killing curve with a large enough effect; inconclusive = small, poorly fitted or top-dose-only effect, or effect the other way; inactive = no such curve, though single readings can be large or run the other way.
Labels: active, inactive

>>> df
                                   compound  class_label
0  C#CC(=O)N(c1ccc(OC)cc1OC)C(C(=O)NCC(=O)OCC)c1cccs1 (stereo unspecified)       active
1                      CC(=O)OCC[N+](C)(C)C     inactive
2  CC1(O)CCC2C(C3C1CCC3(C)O)C2(C)C (stereo unspecified)     inactive
3  C[C@H]1C[C@H]2[C@@H]3CCC4=CC(=O)C=C[C@]4(C)[C@@]3(Cl)[C@@H](O)C[C@]2(C)[C@@]1(O)C(=O)CO       active
4  CC1CCC23COC(=O)C2=CC(O)CC3C1(C)CCC1=CC(=O)OC1O (stereo unspecified)     inactive
5  CC(C)(Sc1cc(C(C)(C)C)c(O)c(C(C)(C)C)c1)Sc1cc(C(C)(C)C)c(O)c(C(C)(C)C)c1     inactive
